Origin of the recorded values: patent US20250243190A1

Assay: Mouse pharmacokinetics, oral or intravenous cassette dosing
Assay type: in vivo, mice (C57BL/6J)
Details: C57BL/6J, whole blood, 3 female mice, 5 mg/kg oral cassette, sampling 0.5-24 h
Method: The pharmacokinetics of the compounds of the present invention was evaluated in 3 male and 3 female mice (C57BL/6J, 8 week old) after oral or intravenous cassette dosing to assess the oral bioavailability. […] The pharmacokinetics of additional compounds of the present invention was evaluated in 3 female mice (C57BL/6J, 8 week old) after oral cassette dosing. […]
Recorded Endpoint: half-life (h)

[[record]]
cpd_smiles = "[2H]C([2H])([2H])OC(=O)c1c(-c2c(F)cccc2Cl)noc1-c1cnn(-c2cccc(Cl)c2)c1C(F)(F)F"
value_observed = 6.4

[[record]]
cpd_smiles = "[2H]C([2H])(OC1CC1)c1c(-c2c(F)cccc2Cl)noc1-c1cnn(-c2cccc(Cl)c2)c1C(F)(F)F"
value_observed = 7.2

